List of pIC50 values.
# test target: AHR (Mus musculus, UniProt P30561)
# Sequence (P30561 whole entry P471L/N533S/M589L, form open): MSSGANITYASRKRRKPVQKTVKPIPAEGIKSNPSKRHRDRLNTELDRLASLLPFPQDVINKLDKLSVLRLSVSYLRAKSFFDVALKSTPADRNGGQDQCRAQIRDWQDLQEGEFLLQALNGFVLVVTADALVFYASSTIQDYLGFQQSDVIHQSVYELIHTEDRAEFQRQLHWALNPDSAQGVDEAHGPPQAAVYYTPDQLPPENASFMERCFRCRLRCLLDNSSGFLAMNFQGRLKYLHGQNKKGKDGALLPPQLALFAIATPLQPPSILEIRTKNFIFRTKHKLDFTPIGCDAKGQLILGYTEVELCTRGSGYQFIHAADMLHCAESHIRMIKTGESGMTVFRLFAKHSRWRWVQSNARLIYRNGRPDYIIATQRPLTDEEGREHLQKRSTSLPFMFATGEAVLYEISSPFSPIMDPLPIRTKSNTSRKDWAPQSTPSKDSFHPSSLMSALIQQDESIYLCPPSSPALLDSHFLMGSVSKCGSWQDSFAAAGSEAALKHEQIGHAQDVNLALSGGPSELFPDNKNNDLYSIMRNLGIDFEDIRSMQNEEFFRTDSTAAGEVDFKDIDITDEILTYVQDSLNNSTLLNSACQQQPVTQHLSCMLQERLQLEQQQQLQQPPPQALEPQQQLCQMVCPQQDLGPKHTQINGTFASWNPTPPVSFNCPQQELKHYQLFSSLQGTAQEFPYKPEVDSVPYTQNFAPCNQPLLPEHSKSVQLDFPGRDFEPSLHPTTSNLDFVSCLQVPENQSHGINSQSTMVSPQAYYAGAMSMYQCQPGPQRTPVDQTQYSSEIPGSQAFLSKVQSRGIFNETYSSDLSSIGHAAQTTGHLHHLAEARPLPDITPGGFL
# protocol details: In vitro assay 3: antagonism in mouse cell line (AHR transactivation, firefly luciferase reporter, kynurenic acid prestimulated)
# Type: cell-based
# conditions: mouse Hepa 1c1c7 cells, 200 μM kynurenic acid, 20 hours, read-out: AHR Antagonism Mouse IC50
pIC50: −log10 of the molar value.

input smiles	pIC50
CCCCNC(=O)[C@H](C)Nc1nc2ccccc2c2nc(-c3cccc(C#N)c3)nn12	7.53
COc1ccc(-c2nc3c4c(OC)cccc4nc(N[C@@H]4CCCCNC4=O)n3n2)cc1	6.51
Cc1cc(C(F)F)c2nc(N[C@@H]3CCCCNC3=O)n3nc(-c4cnn(C)c4)nc3c2c1	5.11
COc1cccc(-c2nc3c4c(F)cccc4nc(N[C@@H]4CCCCNC4=O)n3n2)c1	8.01

* * *

# test target: AHR (Homo sapiens, UniProt P35869)
# Construct: U87 MG glioblastoma cells (ATCC #HTB-14) endogenously expressing AHR; endogenous in cells; host or cells: U87 MG glioblastoma cells (ATCC #HTB-14)
# Sequence (P35869 11-848): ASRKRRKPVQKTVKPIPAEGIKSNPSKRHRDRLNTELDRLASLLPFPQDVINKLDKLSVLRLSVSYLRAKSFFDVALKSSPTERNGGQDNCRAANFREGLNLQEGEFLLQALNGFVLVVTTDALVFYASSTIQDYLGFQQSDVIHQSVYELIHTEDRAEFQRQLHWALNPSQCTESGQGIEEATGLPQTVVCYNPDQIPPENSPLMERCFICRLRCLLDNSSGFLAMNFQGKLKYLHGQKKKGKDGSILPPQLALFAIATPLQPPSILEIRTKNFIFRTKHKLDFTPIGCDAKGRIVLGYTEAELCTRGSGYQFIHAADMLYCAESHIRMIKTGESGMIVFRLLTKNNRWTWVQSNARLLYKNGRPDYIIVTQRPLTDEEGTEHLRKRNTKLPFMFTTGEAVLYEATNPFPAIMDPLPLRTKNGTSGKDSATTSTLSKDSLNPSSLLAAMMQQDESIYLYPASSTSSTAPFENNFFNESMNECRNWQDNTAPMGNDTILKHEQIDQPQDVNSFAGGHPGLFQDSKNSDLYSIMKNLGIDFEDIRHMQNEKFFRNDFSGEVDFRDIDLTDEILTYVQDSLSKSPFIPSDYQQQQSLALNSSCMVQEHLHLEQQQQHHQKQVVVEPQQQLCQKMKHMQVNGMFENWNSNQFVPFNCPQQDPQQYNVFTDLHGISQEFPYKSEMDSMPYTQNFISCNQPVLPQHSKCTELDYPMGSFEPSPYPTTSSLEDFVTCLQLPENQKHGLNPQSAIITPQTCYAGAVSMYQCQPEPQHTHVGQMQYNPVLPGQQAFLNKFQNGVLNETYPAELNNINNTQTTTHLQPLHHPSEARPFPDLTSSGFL
# protocol details: In vitro assay 1: antagonism in human cell line (AHR transactivation, firefly luciferase reporter, kynurenic acid prestimulated)
# Assay type: cell-based
# conditions: AHR Antagonism Human IC50 [M]
observable: IC50 (M)

input smiles	observable	unit text	modifier	meas value
CCCNC(=O)[C@@H](C)Nc1nc2c(Br)cccc2c2nc(-c3ccc(Cl)cc3OC(F)F)nn12	IC50	M	=	6.79e-10
O=C1NCCC[C@H]1Nc1nc2ccccc2c2nc(-c3cc(Cl)ccc3OC(F)(F)F)nn12	IC50	M	>	2e-05
CC(C)(C)c1noc(-c2nc3c4ccccc4nc(N[C@@H]4CCCCNC4=O)n3n2)n1	IC50	M	=	8.35e-08
N#Cc1cccc(-c2nc3c4ccccc4nc(N[C@@H]4CCCNC4=O)n3n2)c1	IC50	M	=	2.73e-07

* * *

# test target: AHR (Mus musculus, UniProt P30561)
# protocol details: In vitro assay 3: antagonism in mouse cell line (AHR transactivation, firefly luciferase reporter, kynurenic acid prestimulated)
# Type: cell-based
# conditions: mouse Hepa 1c1c7 cells, 200 μM kynurenic acid, 20 hours, read-out: AHR Antagonism Mouse IC50
# Procedure: Examples were tested in selected biological assays one or more times. […] Firefly luciferase activity was determined by the SteadyGlo Luciferase Assay System (Promega, #E2550).
pIC50: −log10 of the molar value.
observable: pIC50

compound	modifier	meas value
COc1ccc(-c2nc3c4cccc(OC)c4nc(N[C@@H]4CNCCNC4=O)n3n2)cc1	=	6.43
O=C1NCCCC[C@H]1Nc1nc2c(Br)cc(Br)cc2c2nc(-c3cccc(F)c3)nn12	<	4.70
O=C1NCCCC[C@H]1Nc1nc2ccccc2c2nc(-c3cnn(CCO)c3)nn12	=	6.80
COc1ccc(-c2nc3c4ccccc4nc(N[C@H]4CCCCNC4=O)n3n2)cc1	=	8.01
CC[C@@H](Nc1nc2c(Br)cccc2c2nc(-c3ccc(OC)cc3)nn12)C(N)=O	=	9.06
O=C1NCCCC[C@H]1Nc1nc2ccccc2c2nc(-c3ccc(Cl)cc3)nn12	<	5.00
C[C@@H](Nc1nc2ccccc2c2nc(-c3cnn(C)c3)nn12)C(=O)NCCN(C)C	=	5.99
CCn1nc(C)c(-c2nc3c4cccc(C(F)(F)F)c4nc(N[C@@H]4CCCCNC4=O)n3n2)c1C	=	8.99
COc1cccc(-c2nc3c4ccccc4nc(NC4CCNC4=O)n3n2)c1 (single isomer, unassigned) [Example 121]	=	6.56
CCC[C@@H](Nc1nc2ccccc2c2nc(-c3cc(F)ccc3OC(F)(F)F)nn12)C(=O)NC	=	7.95
Cn1cc(-c2nc3c4ccccc4nc(N[C@H]4CCCCNC4=O)n3n2)cn1	=	6.63
O=C1NCCCC[C@H]1Nc1nc2ccccc2c2nc(-c3nc(C4CC4)no3)nn12	=	7.69
O=C1NCCCC[C@@H]1Nc1nc2c(Br)cccc2c2nc(-c3ccc(F)cc3)nn12	=	8.30
COc1cccc(-c2nc3c4c(C)cccc4nc(N[C@@H]4CNCCNC4=O)n3n2)c1	=	6.57
COc1cccc(-c2nc3c4ccccc4nc(NC4CCN(C)C4=O)n3n2)c1 (single isomer, unassigned) [Example 123]	=	5.73
COc1ccc(-c2nc3c4cccc(C5CC5)c4nc(N[C@@H]4CCCCNC4=O)n3n2)cc1	=	8.10
O=C1NCCCC[C@H]1Nc1nc2c(Cl)cccc2c2nc(-c3cccc(F)c3)nn12	=	8.16
CCn1cc(-c2nc3c4cccc(SC)c4nc(N[C@@H]4CCCCNC4=O)n3n2)c(C)n1	=	7.29
COc1cccc(-c2nc3c4c(C)cccc4nc(N[C@H]4CCCNC4=O)n3n2)c1	=	5.99
CC[C@@H](Nc1nc2ccccc2c2nc(-c3cccc(C(F)(F)F)n3)nn12)C(N)=O	=	7.84
O=C1NCC[C@H]1Nc1nc2c(Br)cccc2c2nc(-c3ccc(F)cc3)nn12	=	8.60
CN(C)c1ccc(-c2nc3c4ccccc4nc(N[C@@H]4CCCCNC4=O)n3n2)cc1	=	9.50
C[C@@H](Nc1nc2ccccc2c2nc(-c3cccc(OC(F)(F)F)c3)nn12)C(=O)NCCN(C)C	=	6.17
O=C1NCCCC[C@H]1Nc1nc2c(C(F)(F)F)cccc2c2nc(-c3cnn(C4CCC4)c3)nn12	=	8.85
Cc1cscc1-c1nc2c3ccccc3nc(N[C@@H]3CCCNC3=O)n2n1	=	8.20
COc1ccc2nc(N[C@@H]3CCCCNC3=O)n3nc(-c4cnn(C)c4)nc3c2c1	=	6.46
COc1ccc(-c2nc3c4cccc(F)c4nc(N[C@@H]4CCCCNC4=O)n3n2)cc1	=	8.84
O=C1NCCNCC1Nc1nc2cccc(Cl)c2c2nc(-c3cccc(F)c3)nn12 (centres unmarked)	=	6.56
Cn1cc(-c2nc3c4cccc(Cl)c4nc(N[C@@H]4CCCCNC4=O)n3n2)cn1	=	8.42
CC[C@@H](Nc1nc2ccccc2c2nc(-c3cccc(S(C)(=O)=O)c3)nn12)C(N)=O	=	6.77
COc1ccccc1-c1nc2c3ccccc3nc(N[C@@H]3CCCCNC3=O)n2n1	=	6.18
O=C1NCCNC[C@H]1Nc1nc2ccccc2c2nc(-c3cc(F)ccc3OC(F)(F)F)nn12	=	6.62
